- test system: hMC5-R (human, UniProt P33032)
- Sequence (P33032 whole entry): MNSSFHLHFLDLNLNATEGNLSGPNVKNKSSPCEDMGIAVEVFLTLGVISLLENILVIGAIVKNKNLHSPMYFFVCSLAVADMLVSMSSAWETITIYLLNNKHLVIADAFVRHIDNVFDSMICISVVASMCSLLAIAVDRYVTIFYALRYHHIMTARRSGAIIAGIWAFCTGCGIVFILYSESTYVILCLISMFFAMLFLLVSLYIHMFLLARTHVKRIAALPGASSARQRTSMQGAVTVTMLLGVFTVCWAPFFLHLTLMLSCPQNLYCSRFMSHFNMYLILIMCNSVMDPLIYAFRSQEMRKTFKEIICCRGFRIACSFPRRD
- experiment notes: competition
pKi: −log10 of the molar value. Bridges are numbered along the chain shown (N, C = ends). [ ]: non-standard residue; d: D form. 3Pal = N[C@@H](Cc1cccnc1)C(=O)O; Nle = CCCC[C@H](N)C(=O)O; GABA = NCCCC(=O)O
observation type: pKi

binder: Ac-[Nle]C[3Pal][dF]RW[GABA]C-NH2 (disulfide 2-8) [Ac-Nle-c(Cys-3-Pal-D-Phe-Arg-Trp-Gaba-Cys)-NH2]
test value: 7.03

binder: Ac-[Nle]D[dA]H[dF]RWK-NH2 (lactam 2-8; SMILES CCCC[C@H](NC(C)=O)C(=O)N[C@H]1CC(=O)NCCCC[C@@H](C(N)=O)NC(=O)[C@H](Cc2c[nH]c3ccccc23)NC(=O)[C@H](CCCNC(=N)N)NC(=O)[C@@H](Cc2ccccc2)NC(=O)[C@H](Cc2c[nH]cn2)NC(=O)[C@@H](C)NC1=O) [Ac-Nle-c(Asp-D-Ala-His-D-Phe-Arg-Trp-Lys)-NH2]
test value: 8.38

binder: Ac-[Nle]C[dA]H[dF]RWGC-NH2 (disulfide 2-9; SMILES CCCC[C@H](NC(C)=O)C(=O)N[C@H]1CSSC[C@@H](C(N)=O)NC(=O)CNC(=O)[C@H](Cc2c[nH]c3ccccc23)NC(=O)[C@H](CCCNC(=N)N)NC(=O)[C@@H](Cc2ccccc2)NC(=O)[C@H](Cc2c[nH]cn2)NC(=O)[C@@H](C)NC1=O) [Ac-Nle-c(Cys-D-Ala-His-D-Phe-Arg-Trp-Gly-Cys)-NH2]
test value: 6.47

From: patent US20170240595
